# Assay protocol: APR_HepG2_P-H2AX_72hr: Apredica 72-hour HepG2 Assay for H2AX Phosphorylation (AID 2282916);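 further: phospho-histone H2A.x immunostain intensity per cell marking DNA damage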
# Run parameters: imaging, actives raise or lower the signal
The source made the active and inactive calls. How the source made its calls: active means hit-call score of the fitted dose curve at least 0.9, where 1 is the maximum; inactive means score below 0.9.
Labels: Y = active, N = inactive

- Molecule: "C[C@]12CCC(=O)C[C@@H]1CC[C@@H]1[C@@H]2CC[C@]2(C)[C@@H](O)CC[C@@H]12"
  Category: "Y"
- Molecule: "CC(C)(C)CC(C)(C)c1ccc(O)cc1"
  Category: "N"
- Molecule: "C=C(C)C(=O)[O][Sn]([CH2]CCC)([CH2]CCC)[CH2]CCC"
  Category: "Y"
- Molecule: "CC(C)(C)c1cc(O)ccc1O"
  Category: "N"
- Molecule: "NC(=O)O"
  Category: "Y"
- Molecule: "Cc1ccccc1N"
  Category: "N"
- Molecule: "Oc1cccc2cccnc12"
  Category: "Y"
- Molecule: "CC12CC1(C)C(=O)N(c1cc(Cl)cc(Cl)c1)C2=O (stereo unspecified)"
  Category: "N"
- Molecule: "ClCC(Cl)CCl"
  Category: "N"
- Molecule: "CC(C)(OO)c1ccccc1"
  Category: "Y"
- Molecule: "O=c1[nH]c(=O)[nH]c(=O)[nH]1"
  Category: "N"
- Molecule: "CCC(=O)C(CC(C)N(C)C)(c1ccccc1)c1ccccc1 (stereo unspecified)"
  Category: "Y"
- Molecule: "C=CC(=O)OCCCCCC(C)C"
  Category: "N"
- Molecule: "O=C(O)C(F)(F)C(F)(F)C(F)(F)C(F)(F)C(F)(F)C(F)(F)F"
  Category: "Y"
- Molecule: "CC(=O)[O][Hg][c]1ccccc1"
  Category: "Y"
- Molecule: "Cn1sc(Cl)cc1=O"
  Category: "Y"
